Would you mind telling me the reported PBM binding z-score of each entry?
Test system: PPARg DBDmut IVT, anti-PPARg (DBD mutation: PPARg1 K132A/R137A, NR concentration 270 nM)
ASSAY_TEXT: PBM binding z-score (relative to random genomic background probes); higher = stronger binding; sequences stand for … in GC…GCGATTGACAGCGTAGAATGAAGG
Answer with a bare number; do not write a unit.

Lab note: measured PBM binding z-score of ATATGTAGGTTAGCTGGGGTCTTTCAGACTAGGC was 0.845

Lab note: measured PBM binding z-score of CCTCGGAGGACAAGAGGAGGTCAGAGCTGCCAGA was -1.36

Lab note: measured PBM binding z-score of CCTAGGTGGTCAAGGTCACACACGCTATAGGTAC was 0.561

----------
Test system: THRa:RXRa (NR concentration 90 nM, RXRa partner concentration 90 nM)
ASSAY_TEXT: PBM binding z-score (relative to random genomic background probes); higher = stronger binding; sequences stand for … in GC…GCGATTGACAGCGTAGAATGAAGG
MEASURE: PBM binding z-score
Answer with a bare number; do not write a unit.

Lab note: measured PBM binding z-score of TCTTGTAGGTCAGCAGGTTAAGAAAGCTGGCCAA was 1.97

Lab note: measured PBM binding z-score of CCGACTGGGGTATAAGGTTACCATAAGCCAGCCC was 2.02

Lab note: measured PBM binding z-score of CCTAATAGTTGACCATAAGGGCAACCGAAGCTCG was 2.02

----------
System: PXR:RXRa (NR concentration 270 nM, RXRa partner concentration 90 nM)
ASSAY_TEXT: PBM binding z-score (relative to random genomic background probes); higher = stronger binding; sequences stand for … in GC…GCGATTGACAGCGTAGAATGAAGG
Would you mind telling me the reported PBM binding z-score of each entry?
Answer with a bare number; do not write a unit.

Lab note: measured PBM binding z-score of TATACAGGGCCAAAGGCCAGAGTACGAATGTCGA was -0.0978

Lab note: measured PBM binding z-score of GCATATAGGTACTACAAGGTGAAAGTCCGATTGT was 0.2

Lab note: measured PBM binding z-score of TCATACAGGTAAACAGGTGAAAGTCCGTAAGTTA was 1.03

Lab note: measured PBM binding z-score of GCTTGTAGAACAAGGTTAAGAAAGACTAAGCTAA was 0.293

Lab note: measured PBM binding z-score of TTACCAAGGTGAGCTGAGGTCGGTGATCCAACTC was 2.47

Lab note: measured PBM binding z-score of AGTCAAAGTTCAGGGCGAGGTAACGTAAAGCACG was 3.19

Lab note: measured PBM binding z-score of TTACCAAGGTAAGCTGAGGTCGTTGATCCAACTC was 3.52

Lab note: measured PBM binding z-score of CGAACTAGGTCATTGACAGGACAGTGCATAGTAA was 1.76

Lab note: measured PBM binding z-score of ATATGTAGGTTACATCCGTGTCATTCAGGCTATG was 0.878

Lab note: measured PBM binding z-score of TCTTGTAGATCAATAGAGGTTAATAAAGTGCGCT was 2.84

Lab note: measured PBM binding z-score of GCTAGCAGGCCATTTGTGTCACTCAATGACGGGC was -0.691

Lab note: measured PBM binding z-score of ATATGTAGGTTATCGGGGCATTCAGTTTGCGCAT was 1.72

Lab note: measured PBM binding z-score of TCAGACAGGTGAAGGTAGCTCAGGTACGCAGTCG was 0.216

Lab note: measured PBM binding z-score of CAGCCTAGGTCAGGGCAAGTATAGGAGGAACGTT was 0.56

Lab note: measured PBM binding z-score of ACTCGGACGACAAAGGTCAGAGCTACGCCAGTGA was 3.4

Lab note: measured PBM binding z-score of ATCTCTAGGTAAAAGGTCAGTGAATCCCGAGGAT was 3.49

Lab note: measured PBM binding z-score of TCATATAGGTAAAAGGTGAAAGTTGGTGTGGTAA was 2.16

Lab note: measured PBM binding z-score of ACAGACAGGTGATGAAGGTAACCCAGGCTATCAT was -0.103

Lab note: measured PBM binding z-score of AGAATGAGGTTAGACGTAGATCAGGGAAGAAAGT was 0.631

Lab note: measured PBM binding z-score of TCTTGTAGATCAGTAGAGGTTAAGAAAGTGCGCT was 2.93

Lab note: measured PBM binding z-score of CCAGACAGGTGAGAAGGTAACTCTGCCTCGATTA was 0.051

Lab note: measured PBM binding z-score of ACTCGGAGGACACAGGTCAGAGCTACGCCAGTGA was 1.09

Lab note: measured PBM binding z-score of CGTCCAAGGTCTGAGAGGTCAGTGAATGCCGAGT was 2.94

Lab note: measured PBM binding z-score of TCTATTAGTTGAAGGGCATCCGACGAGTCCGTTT was 0.775

Lab note: measured PBM binding z-score of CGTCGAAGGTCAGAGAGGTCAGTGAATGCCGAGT was 6.06

Lab note: measured PBM binding z-score of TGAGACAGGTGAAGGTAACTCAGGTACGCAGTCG was -0.189

Lab note: measured PBM binding z-score of GTACCAAGGTGAACAGGTCGTTGATGAGTAGGCG was 0.437

Lab note: measured PBM binding z-score of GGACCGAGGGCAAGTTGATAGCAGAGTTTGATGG was 0.556

Lab note: measured PBM binding z-score of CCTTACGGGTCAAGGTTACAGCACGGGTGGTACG was 3.4

Lab note: measured PBM binding z-score of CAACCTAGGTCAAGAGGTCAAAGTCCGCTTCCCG was 6.26

Lab note: measured PBM binding z-score of ACTAGTTGGTCAGCTGAGGTCACAAACAATTCGG was 5.42

Lab note: measured PBM binding z-score of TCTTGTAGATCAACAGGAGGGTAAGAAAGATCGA was 0.00133

Lab note: measured PBM binding z-score of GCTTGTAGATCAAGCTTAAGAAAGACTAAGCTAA was -0.566

Lab note: measured PBM binding z-score of GCTGCTAGGGCAACTGATGGTCAGCTAAAGCTCG was -0.816

Lab note: measured PBM binding z-score of AGAATGAGGATACCAAAGATCAGGGAAACGCTTG was -0.349

Lab note: measured PBM binding z-score of ATATGTAGGTTAAGGGCCATTCAGGTTGGTTCGC was 0.874

Lab note: measured PBM binding z-score of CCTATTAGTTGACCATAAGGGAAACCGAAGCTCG was 0.326

Lab note: measured PBM binding z-score of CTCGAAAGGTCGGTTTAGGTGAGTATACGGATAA was 1.51

Lab note: measured PBM binding z-score of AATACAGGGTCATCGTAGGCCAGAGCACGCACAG was 4.96

Lab note: measured PBM binding z-score of CCTACTGGGCCACGAAAGGTCAGTGATTCAGTGA was 3.42

Lab note: measured PBM binding z-score of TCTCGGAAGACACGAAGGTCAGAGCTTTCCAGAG was 1.12

Lab note: measured PBM binding z-score of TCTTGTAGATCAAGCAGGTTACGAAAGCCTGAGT was 0.615

----------
Would you mind telling me the reported PBM binding z-score of each entry?
Test system: RARa:RXR (NR concentration 270 nM, RXRa partner concentration 90 nM)
ASSAY_TEXT: PBM binding z-score (relative to random genomic background probes); higher = stronger binding; sequences stand for … in GC…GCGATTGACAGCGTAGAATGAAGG
Answer with a bare number; do not write a unit.

Lab note: measured PBM binding z-score of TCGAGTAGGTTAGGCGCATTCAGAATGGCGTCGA was -0.497

Lab note: measured PBM binding z-score of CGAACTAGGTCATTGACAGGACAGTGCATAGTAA was 2.28

Lab note: measured PBM binding z-score of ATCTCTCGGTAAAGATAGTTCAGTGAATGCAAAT was 0.965

Lab note: measured PBM binding z-score of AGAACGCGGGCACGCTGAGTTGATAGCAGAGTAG was -0.215

Lab note: measured PBM binding z-score of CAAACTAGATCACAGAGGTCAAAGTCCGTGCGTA was 6.13

Lab note: measured PBM binding z-score of CTACCAAGGTGAACAAGGTCGTTGTTTACTATTC was 2.27

Lab note: measured PBM binding z-score of CCTACTGGGCCAAAAAGGTCATAGATGCCGATAA was 5.33

Lab note: measured PBM binding z-score of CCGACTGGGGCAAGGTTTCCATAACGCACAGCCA was -0.351

Lab note: measured PBM binding z-score of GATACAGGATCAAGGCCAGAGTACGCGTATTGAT was -0.382
